system: HCC1569; assay: cell number relative to DMSO (% of DMSO); higher = more cells (less growth inhibition / toxicity); conditions: concentration: 10 µM; 24 h
Below is a list of entries, each paired with its recorded cell number value.
Returns: the value as a bare number; no unit string appended.

Consider the worked cases shown below.
COC1=C(OC)C(=O)C(CCCCCCCCCCO)=C(C)C1=O [Idebenone]
101
O=C1CSC(c2cccc(Br)c2)N1c1cc(Cl)ccc1O (stereo not drawn)
102
CCN(Cc1ccncc1)C(=O)C(CO)c1ccccc1 (stereo not drawn) [Tropicamide]
104
CCCCCC=CCC1OC1CC=CCC=CCCCC(=O)O (stereo not drawn) [11,12-Epoxyeicosatrienoic acid]
104
COCCc1ccc(OCC(O)CNC(C)C)cc1 (stereo not drawn) [Metoprolol]
104
COc1cc(C2c3cc4c(cc3C(OC3OC5COC(C)OC5C(O)C3O)C3COC(=O)C23)OCO4)cc(OC)c1O (stereo not drawn) [Etoposide]
74.1

Exam item: Report value only: cell number, HCC1569, CS(=O)(=O)O.CSc1ccc2c(c1)C(N1CCN(C)CC1)Cc1ccccc1S2 (stereo not drawn) [Methiothepin mesylate]
Marked response: 91.1

Exam item: State cell number (HCC1569) of COc1ccccc1N1CCN(CCCCNS(=O)(=O)c2cccc3c(N(C)C)cccc23)CC1.O=C(O)C=CC(=O)O [Cortexolone maleate] .
Marked response: 85.1

###

Below, each entry is listed with its recorded H1.0 immunofluorescence intensity.
test system: TDF; assay: H1.0 immunofluorescence intensity relative to DMSO (% of DMSO); higher = stronger H1.0 induction, active = 120 or more; details: concentration: 10 µM; 24 h
# answer = number (no unit)

# count of solved cases: 7
COC(=O)c1sccc1S(=O)(=O)Nc1ccc(Nc2ccccc2)cc1OC
88.2
O=c1cc(-c2ccc(O)c(O)c2)oc2cc(O)c(C3OC(CO)C(O)C(O)C3O)c(O)c12 (stereo not drawn) [Homoorientin]
100
Cl.Cn1c(=O)c(Oc2ccc(F)cc2F)cc2cnc(NC3CCOCC3)nc21
89
COc1ccc2c3c1OC1CC(O)C=CC31CCN(C)C2 (stereo not drawn) [Galanthamine]
94
CCCCCCCC(=O)c1c(O)cc(O)cc1CC(=O)OCC [ethyl (3,5-dihydroxy-2-octanoylphenyl)acetate]
96.7
Cc1scc2c1N(C(=O)CN1CCN(C)CC1)c1ccccc1NC2=O.Cl.Cl [Telenzepine dihydrochloride]
99.8
Cl.Cl.Cl.NCCCCNCCCN [Spermidine trihydrochloride]
102

Here is the next item to consider.
Exam item: Check TDF data and give H1.0 immunofluorescence intensity for CC(CN1c2ccccc2Sc2ccccc21)N(C)C.Cl (stereo not drawn) [Promethazine hydrochloride] .
Marked response: 109

###

test system: TDF; assay: cell number relative to DMSO (% of DMSO); higher = more cells (less growth inhibition / toxicity); details: concentration: 10 µM; 24 h
measured-quantity: cell number
Give the value as a plain number.

Exam item: Recall the reported cell number of Cl.NCCS [Cysteamine hydrochloride] when tested on TDF.
Marked response: 99.7

Exam item: Would you please give the reported cell number of CC(C)N(CCC(=O)c1ccc2ccccc2c1)Cc1ccccc1.Cl with TDF?
Marked response: 92.5

Exam item: Give cell number for CCc1cc(Cl)c(OC)c(C(=O)NCC2CCCN2CC)c1O.Cl (stereo not drawn) [S-(-)-Eticlopride hydrochloride] tested on TDF.
Marked response: 110

Exam item: Name the recorded cell number of O=P(O)(O)C(Cl)(Cl)P(=O)(O)O , assay system TDF.
Marked response: 103

Exam item: Enter recorded cell number with TDF for C=CCn1c(=O)c2c(nc(-c3ccc(S(=O)(=O)O)cc3)n2C)n(C)c1=O here.
Marked response: 108

Exam item: Provide cell number, system TDF, entry CCCCS(=N)(=O)CCC(N)C(=O)O [L-Buthionine-sulfoximine]
Marked response: 96.6

Exam item: Please look at CCCCCC=CCC=CCCCCCCCCCCC(=O)O [12(Z), 15(Z)-Heneicosadienoic acid] and tell me its recorded cell number on TDF.
Marked response: 103

Exam item: Send back TDF cell number of CCCCCCCCCCCCCC=CC(O)C(CO)NC(C)=O (centres undefined) [C2 Ceramide] only.
Marked response: 107

Exam item: Jot down cell number (TDF) of CC(N)(Cc1ccc(O)c(O)c1)C(=O)O (racemic) .
Marked response: 101

###

Catalogue of H1.0 immunofluorescence intensity values
system: HCC1569; assay: H1.0 immunofluorescence intensity relative to DMSO (% of DMSO); higher = stronger H1.0 induction, active = 140 or more; details: concentration: 10 µM; 24 h
Form field (numeric): enter value without unit.

Guide cases for H1.0 immunofluorescence intensity, answers given:
C=CC1CN2CCC1CC2C(O)c1ccnc2ccc(OC)cc12.Cl.O (centres undefined)
95
COc1cc(C(O)C(=O)O)ccc1O (centres undefined) [hydroxy(4-hydroxy-3-methoxyphenyl)acetic acid]
99.4
O=C(C=Cc1ccc(O)c(O)c1)OC1CC(O)(C(=O)O)CC(O)C1O (centres undefined) [Chlorogenic acid]
100

Exam item: Give recorded H1.0 immunofluorescence intensity. Nc1nc(=O)n(C2CSC(CO)O2)cc1F (centres undefined) [Emtricitabine]
Marked response: 105

Exam item: State its H1.0 immunofluorescence intensity: CCCCCC=CCC(O)C=Cc1cccc(CC(O)CCCCO)n1 (centres undefined)
Marked response: 113

Exam item: Give H1.0 immunofluorescence intensity for the following compound: CCCn1c(=O)[nH]c(=O)c2[nH]cnc21 [3-n-Propylxanthine]
Marked response: 101

Exam item: Give reported H1.0 immunofluorescence intensity value for CC(CN1c2ccccc2Sc2ccccc21)N(C)C.Cl (centres undefined)
Marked response: 112

Exam item: Find the measured H1.0 immunofluorescence intensity of CCCCCCCCCCCCCC(=O)NC(C)C(O)c1ccccc1 [D-erythro MAPP] and report it.
Marked response: 94.7

Exam item: Quickly give me recorded H1.0 immunofluorescence intensity for O=C(c1ccc(C(=O)N2CCC(N3CCCC3)CC2)c(Nc2ccccc2)c1)N1CCC(N2CCCC2)CC1
Marked response: 102

###

tested on: TDF; assay: cell number relative to DMSO (% of DMSO); higher = more cells (less growth inhibition / toxicity); settings: concentration: 10 µM; 24 h
measured-quantity: cell number
Kindly provide the number alone.

Study these solved cases before continuing.
CCCCCCCCCCCC=CCC=CCCCC(=O)O [5(Z), 8(Z)-Eicosadienoic acid]
96.9
CCC1(c2ccccc2)NC(=O)N(C)C1=O (centres undefined)
109
Cc1ccc(NC(=O)c2ccc(CN3CCN(C)CC3)cc2)cc1Nc1nc(-c2cccnc2)cs1
79.9

Exam item: Would you please give the reported cell number of COc1ccc(C(=O)Nc2c(Cl)cncc2Cl)cc1OC1CCCC1 with TDF?
Marked response: 93.3

Exam item: Enter recorded cell number with TDF for CCCCCCC=CCCCCCCCC(=O)O [9(E)-Hexadecenoic acid] here.
Marked response: 97.4

Exam item: // output cell number; input CC1CCN=C(N)S1.Cl (racemic) ; system TDF
Marked response: 103

Exam item: Look up and report measured cell number (TDF) for the following compound: Cc1ccc(-c2nn(C(C)(C)C)c3ncnc(N)c23)cc1
Marked response: 109

Exam item: For TDF, give cell number of the listed compound: COc1cc(O)c(C(=O)C=Cc2ccccc2)c(OC)c1
Marked response: 81.6

Exam item: State cell number on TDF. Entry: OCC1OC(n2cnc3c(NC4CCCC4)nc(Cl)nc32)C(O)C1O (centres undefined)
Marked response: 104

###

tested on: TDF; assay: cell number relative to DMSO (% of DMSO); higher = more cells (less growth inhibition / toxicity); conditions: concentration: 10 µM; 24 h
Give MET when the value for cell number is at least 100. Give NOT MET when it is less.

// known answers, use as guide
CCN(CC)CCOc1ccc(C(=C(Cl)c2ccccc2)c2ccccc2)cc1 [Clomiphene]
NOT MET
CC(=O)c1ccc(N2CCOCC2)cc1O [DNA-PK Inhibitor III]
NOT MET
CCCCCCCCCCCCCCCCOCC(CO)OC (configuration not stated) [1-Hexadecyl-2-O-methyl-glycerol]
MET
NC(=O)Nc1sc(-c2ccc(F)cc2)cc1C(N)=O
NOT MET
COc1ccccc1OCC(O)CN1CCN(CC(=O)Nc2c(C)cccc2C)CC1.Cl.Cl (configuration not stated) [Ranolazine dihydrochloride]
MET

Exam item: Dear colleague, could you confirm whether Nc1nccc2c1ncn2C1OC(CO)C(O)C1O (configuration not stated) [3-deazaadenosine] has cell number at or above 100?
Marked response: NOT MET

Exam item: Can Cc1cn(-c2cc(NC(=O)c3ccc(C)c(Nc4nccc(-c5cccnc5)n4)c3)cc(C(F)(F)F)c2)cn1 [Nilotinib] be said to have cell number at or above 100?
Marked response: NOT MET

Exam item: API: above_or_equal(metric=cell number, cutoff=100) for item O=c1c(O)c(-c2cc(O)c(O)c(O)c2)oc2cc(O)ccc12 [Robinetine]
Marked response: MET

Exam item: Assess whether reported cell number for Cc1c(C)c2c(c(C)c1OC(=O)CCC(=O)O)CCC(C)(CCCC(C)CCCC(C)CCCC(C)C)O2 (configuration not stated) [Tocopherol succinate] sits at 100 or higher.
Marked response: MET

Exam item: Test whether the molecule COc1ccccc1N1CCN(CCN(C(=O)c2ccc(F)cc2)c2ccccn2)CC1.Cl.Cl [p-MPPF dihydrochloride] records cell number of 100 or higher.
Marked response: MET

Exam item: Does CN(C)CCCC1(c2ccc(F)cc2)OCc2cc(C#N)ccc21 (configuration not stated) [Escitalopram] have a reported cell number of at least 100?
Marked response: NOT MET

Exam item: Item Nc1ccc(CCNc2ncnc3c2ncn3C2OC(CO)C(O)C2O)cc1 (configuration not stated) [N6-2-(4-Aminophenyl)ethyladenosine] with cell number of 100 or above?
Marked response: MET

Exam item: Hi team, for O=C(O)CN(CCOCCOCCN(CC(=O)O)CC(=O)O)CC(=O)O , is the recorded cell number at or above 100?
Marked response: MET
